Listing: kon of selected binders
# Target Or System: T1, human DLL4 extracellular domain (human, UniProt Q9NR61 27-529)
# T1 construct: purified recombinant ECD; biotin-labelled or 6xHis-tagged depending on the assay; also called huDLL4 ECD; hu DLL4 ECD
# T1 sequence (Q9NR61 27-529 limits assumed): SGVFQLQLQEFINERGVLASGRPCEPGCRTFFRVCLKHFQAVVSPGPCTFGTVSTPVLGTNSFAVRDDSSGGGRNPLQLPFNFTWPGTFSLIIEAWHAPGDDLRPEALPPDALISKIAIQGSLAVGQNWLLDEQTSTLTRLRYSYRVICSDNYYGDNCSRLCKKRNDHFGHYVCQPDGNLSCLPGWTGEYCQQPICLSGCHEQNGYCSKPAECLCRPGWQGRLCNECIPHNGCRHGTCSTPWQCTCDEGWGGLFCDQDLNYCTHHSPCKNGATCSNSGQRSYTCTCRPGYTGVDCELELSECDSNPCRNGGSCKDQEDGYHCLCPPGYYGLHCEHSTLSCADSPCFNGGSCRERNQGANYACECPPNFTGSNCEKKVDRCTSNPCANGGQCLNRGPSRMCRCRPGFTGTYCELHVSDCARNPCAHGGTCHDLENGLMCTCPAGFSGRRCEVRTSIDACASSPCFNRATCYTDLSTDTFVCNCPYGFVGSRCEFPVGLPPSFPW
# Procedure Summary: SPR (Biacore)
A number alone suffices; assume M⁻¹ s⁻¹.

// sample h1A11.C6 (antibody, V domains shown, also called h1A11.C6 VH / h1A11VL.1) VH: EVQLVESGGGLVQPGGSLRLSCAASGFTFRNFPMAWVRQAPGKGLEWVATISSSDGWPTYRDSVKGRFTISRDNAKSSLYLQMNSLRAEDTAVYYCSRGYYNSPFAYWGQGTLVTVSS VL: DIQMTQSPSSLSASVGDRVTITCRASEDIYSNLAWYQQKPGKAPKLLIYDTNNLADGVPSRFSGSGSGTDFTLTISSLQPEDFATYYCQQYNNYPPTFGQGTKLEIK , its kon was 178000

// sample h1A11.B4 (antibody, V domains shown, also called h1A11VH.1 / h1A11.B4 VL) VH: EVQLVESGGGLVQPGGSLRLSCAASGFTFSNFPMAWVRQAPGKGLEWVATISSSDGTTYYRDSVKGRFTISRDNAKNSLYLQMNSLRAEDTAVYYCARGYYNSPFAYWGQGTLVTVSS VL: DIQMTQSPSSLSASVGDRVTITCRASQDIYYNLAWYQQKPGKAPKLLIFDTNILADGVPSRFSGSGSGTDFTLTISSLQPEDFATYFCQQYDYVPPTFGQGTKLEIK , its kon was 157000
